biological target: BTK (Homo sapiens (Human), UniProt Q06187)
Sequence (Q06187 whole entry): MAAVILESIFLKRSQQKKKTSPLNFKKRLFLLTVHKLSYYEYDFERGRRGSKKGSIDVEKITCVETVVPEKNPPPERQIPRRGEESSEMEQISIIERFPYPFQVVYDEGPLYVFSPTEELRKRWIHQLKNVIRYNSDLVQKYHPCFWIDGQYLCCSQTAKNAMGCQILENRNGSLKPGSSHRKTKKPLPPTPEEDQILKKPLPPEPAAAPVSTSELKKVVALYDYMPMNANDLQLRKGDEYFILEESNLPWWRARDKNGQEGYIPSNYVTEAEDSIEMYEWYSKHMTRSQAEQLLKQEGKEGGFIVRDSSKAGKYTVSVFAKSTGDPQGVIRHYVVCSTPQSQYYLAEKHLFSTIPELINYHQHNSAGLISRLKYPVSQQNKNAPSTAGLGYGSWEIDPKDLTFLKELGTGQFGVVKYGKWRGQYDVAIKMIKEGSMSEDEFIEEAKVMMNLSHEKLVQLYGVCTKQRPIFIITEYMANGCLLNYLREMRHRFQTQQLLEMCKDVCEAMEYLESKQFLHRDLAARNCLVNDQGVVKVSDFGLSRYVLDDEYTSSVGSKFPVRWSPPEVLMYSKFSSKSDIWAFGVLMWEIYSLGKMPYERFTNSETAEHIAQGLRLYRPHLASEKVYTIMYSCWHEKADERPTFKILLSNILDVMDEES
Labelling: Ki reported below 0.5 nM becomes label 1; at or above becomes label 0.

Illustrative cases are given below, each with its answer.
[[record]]
compound = "Cn1cc(-c2ccnc(N3CCn4c(cc5c4CC(C)(C)C5)C3=O)c2CO)cc(Nc2ccnc(N3CCC(C(=O)NCC#N)C3)n2)c1=O (stereo not drawn)"
category = "label 0"

[[record]]
compound = "CCC(=O)NCCOc1cccc(Nc2cc(-c3ccnc(N4CCn5c(cc6c5CC(C)(C)C6)C4=O)c3CO)cn(C)c2=O)n1"
category = "label 0"

[[record]]
compound = "C=CC(=O)NCCOc1cccc(Nc2cc(-c3ccnc(-n4ncc5cc(C(C)(C)C)cc(F)c5c4=O)c3CO)cn(C)c2=O)n1"
category = "label 0"

[[record]]
compound = "C=CC(=O)NCCOc1cccc(Nc2cc(-c3ccnc(N4CCn5c(cc6c5CC(C)(C)C6)C4=O)c3CO)cn(C)c2=O)n1"
category = "label 0"


Alright, here's another compound for you.
Does this compound meet the criterion Ki < 0.5 nM? "CC#CC(=O)NCCOc1cccc(Nc2cc(-c3cc(F)cc(-n4ncc5c6c(sc5c4=O)CCCC6)c3CO)cn(C)c2=O)n1"
label 1

Every entry's value here was drawn from patent US9260415B2.
